Provenance of the data: patent US10717742B2

Biological target: p53-MDM2 interaction (GST-MDM2 protein aa 23-117 / biotinylated p53 wt peptide) (Homo sapiens (Human), UniProt Q00987)
Sequence (Q00987 23-117): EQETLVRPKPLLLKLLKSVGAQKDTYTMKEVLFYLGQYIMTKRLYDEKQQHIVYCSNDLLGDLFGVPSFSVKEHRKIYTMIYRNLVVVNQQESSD
Assay: Mdm2-p53 Inhibition AlphaScreen
Conditions: GST-MDM2 (aa 23-117) / biotinylated p53 wt peptide
Description: Mdm2-p53 Inhibition AlphaScreen 15 μL of compound in 20% DMSO (serial pre-dilutions of compound are done in 100% DMSO) is pipetted to the wells of a white OptiPlate-96 (Perkin Elmer). […] Afterwards, the signal is measured in a PerkinElmer Envision HIS Multilabel Reader using the AlphaScreen protocol from Perkin Elmer. […]
MEASURE_NAME: IC50 (nM)

Example cases with answers are listed next.
| COMPOUND | MEASURE_NAME | QUANTITATIVE_READOUT |
| --- | --- | --- |
| CCOc1cccc(CN2[C@H]3Cc4c5cc(C)c(C(=O)NCCOC)cc5nn4[C@H]3[C@H](c3cccc(Cl)c3F)[C@]23C(=O)Nc2cc(Cl)ccc23)c1 | IC50 | 6 |
| CC(C)CN1[C@H]2Cc3c4ccc(C(=O)O)cc4nn3[C@H]2[C@H](c2cccc(Cl)c2F)[C@]12C(=O)Nc1cc(Cl)ccc12 | IC50 | 2 |
| CCCN1[C@H]2Cc3c4ccc(C(=O)O)cc4nn3[C@H]2[C@H](c2cccc(Cl)c2F)[C@]12C(=O)Nc1cc(Cl)ccc12 | IC50 | 2 |
| CCOc1cccc(CN2[C@H]3Cc4c5cc(C)c(C(=O)N(C)C)cc5nn4[C@H]3[C@H](c3cccc(Cl)c3F)[C@]23C(=O)Nc2cc(Cl)ccc23)c1 | IC50 | 13 |
| Cc1cc2c3n(nc2cc1C(=O)O)[C@@H]1[C@H](C3)N(CC(C)C)[C@@]2(C(=O)Nc3cc(Cl)ccc32)[C@H]1c1cccc(Cl)c1F | IC50 | 4 |
| CC(C)(O)CNC(=O)c1ccc2c(c1)nc1n2CC[C@H]2[C@@H]1[C@H](c1cccc(Cl)c1F)[C@]1(C(=O)Nc3cc(Cl)ccc31)N2CC1CC1 | IC50 | 7 |
| Cc1c(C(=O)O)ccc2c1nc1n2CC[C@H]2[C@@H]1[C@H](c1cccc(Cl)c1F)[C@]1(C(=O)Nc3cc(Cl)ccc31)N2CC1CC1 | IC50 | 4 |
| CCN1[C@H]2Cc3c4ccc(C(=O)NCCO)cc4nn3[C@H]2[C@H](c2cccc(Cl)c2F)[C@]12C(=O)Nc1cc(Cl)ccc12 | IC50 | 4 |

a = CCOc1cccc(CN2[C@H]3CCn4c(nc5cc(C(=O)O)ccc54)[C@H]3[C@H](c3cccc(Cl)c3F)[C@]23C(=O)Nc2cc(Cl)ccc23)c1 [Ib-139]
b = COC(=O)c1ccc2c(c1)nc1n2CC[C@H]2[C@@H]1[C@H](c1cccc(Cl)c1F)[C@]1(C(=O)Nc3cc(Cl)ccc31)N2CC=C(C)C
Lower IC50: a or b ? // output: label of the selected item
a

1 = COCCOCCNC(=O)c1ccc2c(c1)nc1n2CC[C@H]2[C@@H]1[C@H](c1cccc(Cl)c1F)[C@]1(C(=O)Nc3cc(Cl)ccc31)N2CC1CC1
2 = CNC(=O)c1cc2nc3n(c2cc1OC)CC[C@H]1[C@@H]3[C@H](c2cccc(Cl)c2F)[C@]2(C(=O)Nc3cc(Cl)ccc32)N1CC1CC1
From the recorded data, which exceeds the other in IC50: 1 or 2 ? // output: label of the selected item
1
